Source listed as patent US20230348616A1.

# Target system: T1, HLA-A*0201/β2-microglobulin/NY-ESO peptide complex (human, biotinylated with E. coli biotin ligase at the added recognition sequence (biotinylated form used in the ELISA))
# T1 construct: also called HLA/NY-ESO; HLA-A2/NY-ESO
# Assay procedure: SPR (Biacore T200), scFv captured by anti-His antibody, HLA/NY-ESO as analyte, single cycle kinetics
Measured parameter: pKd
Lab note: report pKd as minus log10 of the concentration in molar units, number only.

Recorded pKd for NYA-2044 (scFv, also called NYA-2044 tag adduct) scFv: GEVQLVESGGGLVQPGGSLRLSCAASGFSIRSYDIHWVRLAPGKGLEWVATISYDGSQKYYADSVKGRFTISRDESKNTLYLQMNSLRAEDTAVYHCARGSSGHYEAFDIWGQGTLVTVSSGGGGSGGGGSGGGGSQSVLTQPPSVSAAPGQKVTISCSGSSSNIGNWYVSWYQQLPGTAPKLLIYDNNKRPSGIPDRFSGSKSGTSATLGITGLQTGDEADYYCGTWDSSLSAPWVFGGGTKVTVLGAAAGAGGDYKDDDDKGAAAHHHHHH , please?
9.10
